- Tested on: SKBR-3 cell line (human breast cancer)
- method.description: Cytotoxicity Assay (Cell titer glo, 72 h), SKBR-3
- Type: cell-based
- condition.description: ratio of payload IC50 to DXD control IC50
Attribute: Normalized IC50 (PL IC50/DXD IC50)
reported.property: Normalized IC50 (PL IC50/DXD IC50)

1. CC[C@@]1(O)C(=O)OCc2c1cc1n(c2=O)Cc2c-1nc1cc(F)c(C)cc1c2Cn1cc(-c2ccc(NC(=O)CN)cc2)nn1; 0.60
2. CC[C@@]1(O)C(=O)OCc2c1cc1n(c2=O)Cc2c-1nc1cc(F)c(C)cc1c2Cn1nncc1CO; 11.97
3. CC[C@@]1(O)C(=O)OCc2c1cc1n(c2=O)Cc2c-1nc1cc(F)c(C)cc1c2Cn1nncc1CNC; 13.01
4. CC[C@@]1(O)C(=O)OCc2c1cc1n(c2=O)Cc2c-1nc1cc(F)c(C)cc1c2Cn1cc(CCNC)nn1; 3.32
5. CC[C@@]1(O)C(=O)OCc2c1cc1n(c2=O)Cc2c-1nc1cc(F)c(C)cc1c2Cn1cc(CCCN)nn1; 3.60
6. CC[C@@]1(O)C(=O)OCc2c1cc1n(c2=O)Cc2c-1nc1cc(F)c(C)cc1c2Cn1cc(C(C)O)nn1 (stereo partly shown); 45.22
7. CC[C@@]1(O)C(=O)OCc2c1cc1n(c2=O)Cc2c-1nc1cc(F)c(C)cc1c2Cn1cc(C2CCCN2)nn1 (stereo partly shown); 12.80

* * *

- Test system: SKBR-3 cell line (human breast cancer)
- method.description: Cytotoxicity Assay (Cell titer glo, 72 h), SKBR-3
- Assay type: cell-based
- condition.description: ratio of payload IC50 to DXD control IC50
reported.property: Normalized IC50 (PL IC50/DXD IC50)

1. CC[C@@]1(O)C(=O)OCc2c1cc1n(c2=O)Cc2c-1nc1cc(F)c(C)cc1c2Cn1cc(-c2cccc(N)c2)nn1 [Payload 16]; 8.55
2. CC[C@@]1(O)C(=O)OCc2c1cc1n(c2=O)Cc2c-1nc1cc(F)c(C)cc1c2Cn1nncc1CCO [Payload 65]; 18.50
3. CC[C@@]1(O)C(=O)OCc2c1cc1n(c2=O)Cc2c-1nc1cc(F)c(C)cc1c2Cn1cc(CN2CCOC(CNC(=O)CO)C2)nn1 (some centres unmarked) [Payload 62]; 1714.88
4. CC[C@@]1(O)C(=O)OCc2c1cc1n(c2=O)Cc2c-1nc1cc(F)c(C)cc1c2Cn1cc(CN)nn1 [Payload 5]; 18.99
5. CC[C@@]1(O)C(=O)OCc2c1cc1n(c2=O)Cc2c-1nc1cc(F)c(C)cc1c2Cn1cc(-c2ccccc2NC(=O)CN)nn1 [Payload 66]; 3.58
6. CC[C@@]1(O)C(=O)OCc2c1cc1n(c2=O)Cc2c-1nc1cc(F)c(C)cc1c2Cn1cc(CO)nn1 [Payload 2]; 9.01
7. CC[C@@]1(O)C(=O)OCc2c1cc1n(c2=O)Cc2c-1nc1cc(F)c(C)cc1c2Cn1cc(CCO)nn1 [Payload 39]; 0.92
8. CC[C@@]1(O)C(=O)OCc2c1cc1n(c2=O)Cc2c-1nc1cc(F)c(C)cc1c2Cn1cc(CN2CCC(CO)CC2)nn1 [Payload 23]; 199.52
9. CC[C@@]1(O)C(=O)OCc2c1cc1n(c2=O)Cc2c-1nc1cc(F)c(C)cc1c2Cn1cc(-c2cc(F)cnc2N)nn1 [Payload 46]; 0.24
10. CC[C@@]1(O)C(=O)OCc2c1cc1n(c2=O)Cc2c-1nc1cc(F)c(C)cc1c2Cn1cc(C2CCCN2C(=O)CO)nn1 (some centres unmarked) [Payload 61]; 177.62
11. CC[C@@]1(O)C(=O)OCc2c1cc1n(c2=O)Cc2c-1nc1cc(F)c(C)cc1c2Cn1cc(C2(N)CC2)nn1 [Payload 47]; 4.86
12. CC[C@@]1(O)C(=O)OCc2c1cc1n(c2=O)Cc2c-1nc1cc(F)c(C)cc1c2Cn1cc(CNC(=O)OC(C)(C)C)nn1 [Payload 4]; 14.03
13. CC[C@@]1(O)C(=O)OCc2c1cc1n(c2=O)Cc2c-1nc1cc(F)c(C)cc1c2Cn1cc(CCN)nn1 [Payload 36]; 203.63
14. CC[C@@]1(O)C(=O)OCc2c1cc1n(c2=O)Cc2c-1nc1cc(F)c(C)cc1c2Cn1cc(CN2CCNCC2)nn1 [Payload 22]; 20.02
